- Test system: HOP-62 NSCLC
- EXPERIMENT SUMMARY: NCI tumour cell line growth inhibition, 48 h
Below, each entry is listed alongside its reported TGI.
EXPERIMENTAL ENDPOINT: TGI (µM)

MOLECULE	TARGET DESC	LIMIT SIGN	ENDPOINT VALUE
CCc1ccc2c(c1)N(CC(C)CN(C)C)c1ccccc1S2 (configuration not stated)	HOP-62 NSCLC	=	17.8
Oc1cccc2c1NCCC2	HOP-62 NSCLC	=	42.5
CC1CC(C#N)=C2NCCN2C1=O (configuration not stated)	HOP-62 NSCLC	>	100
FC(F)(F)c1cccc(-c2nn3ncccc3c2-c2ccnc(Nc3ccc4c(c3)OCCO4)n2)c1	HOP-62 NSCLC	>	25
COc1ccc(-c2cc(=O)c3c(O)cccc3o2)c(OC)c1OC	HOP-62 NSCLC	>	100
O=NN(CCF)C(=O)NC1CCSCC1	HOP-62 NSCLC	>	100
Cc1[nH]nc(-c2ccon2)c1N=O	HOP-62 NSCLC	=	41.9
